target: UniProt:P00533; assay: EGFR inhibitory assay
Sequence (P00533 25-1210): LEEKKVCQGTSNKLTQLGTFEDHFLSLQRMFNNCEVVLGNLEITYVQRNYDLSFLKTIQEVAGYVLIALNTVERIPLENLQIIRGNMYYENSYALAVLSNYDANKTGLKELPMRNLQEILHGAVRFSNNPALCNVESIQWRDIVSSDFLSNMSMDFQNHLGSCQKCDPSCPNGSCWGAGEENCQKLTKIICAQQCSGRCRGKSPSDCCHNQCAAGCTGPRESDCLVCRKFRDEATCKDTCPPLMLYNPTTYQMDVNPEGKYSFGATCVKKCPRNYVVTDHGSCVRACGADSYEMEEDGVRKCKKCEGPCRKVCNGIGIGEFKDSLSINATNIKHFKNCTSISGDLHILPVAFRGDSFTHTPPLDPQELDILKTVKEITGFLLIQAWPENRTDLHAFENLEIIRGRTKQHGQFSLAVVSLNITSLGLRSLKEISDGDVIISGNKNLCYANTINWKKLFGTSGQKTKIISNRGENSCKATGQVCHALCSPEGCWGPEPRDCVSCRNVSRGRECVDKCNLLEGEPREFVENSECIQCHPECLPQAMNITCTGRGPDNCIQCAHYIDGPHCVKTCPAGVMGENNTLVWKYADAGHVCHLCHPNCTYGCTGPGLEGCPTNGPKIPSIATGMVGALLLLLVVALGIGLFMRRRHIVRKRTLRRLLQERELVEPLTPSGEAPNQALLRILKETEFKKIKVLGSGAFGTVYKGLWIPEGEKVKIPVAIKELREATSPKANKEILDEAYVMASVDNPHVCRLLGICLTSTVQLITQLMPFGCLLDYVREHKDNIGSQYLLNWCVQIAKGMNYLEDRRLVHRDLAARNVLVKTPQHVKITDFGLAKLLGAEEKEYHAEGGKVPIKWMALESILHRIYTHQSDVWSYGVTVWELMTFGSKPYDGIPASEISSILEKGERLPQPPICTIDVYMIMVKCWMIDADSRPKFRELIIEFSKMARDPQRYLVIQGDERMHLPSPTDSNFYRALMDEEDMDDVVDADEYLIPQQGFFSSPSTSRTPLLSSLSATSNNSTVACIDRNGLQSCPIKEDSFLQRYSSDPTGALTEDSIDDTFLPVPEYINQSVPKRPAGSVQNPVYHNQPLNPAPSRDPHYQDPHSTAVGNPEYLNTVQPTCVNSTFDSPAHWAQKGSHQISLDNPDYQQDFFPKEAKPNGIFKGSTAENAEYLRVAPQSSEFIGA
Examples of compounds with documented pIC50 follow.
In plain terms, pIC50 is the concentration in mol/L turned into minus its base-10 logarithm.

- compound: "N#Cc1c(-c2ccc(Cl)cc2)cc(-c2ccc(Cl)cc2)n(CC(=O)Nc2ccc(C3=NNC(c4ccccc4)C3)cc2)c1=O (centres unmarked) [Compound 21]"
  targetEntity: "UniProt:P00533"
  pIC50: 7.14
- compound: "COc1ccc(-c2cc(-c3ccc(OC)c(OC)c3)c(C#N)c(=O)n2CC(=O)Nc2ccc(C3=NNC(c4ccc(OC)c(OC)c4)C3)cc2)cc1 (centres unmarked) [Compound 24]"
  targetEntity: "UniProt:P00533"
  pIC50: 7.14
- compound: "COc1ccc(-c2cc(-c3ccc(OC)c(OC)c3)n(CC(=O)Nc3ccc(C4=NNC(c5ccc(OC)c(OC)c5)C4)cc3)c(=O)c2C#N)cc1OC (centres unmarked) [Compound 30]"
  targetEntity: "UniProt:P00533"
  pIC50: 7.17
- compound: "COc1ccc(C2CC(c3ccc(NC(=O)Cn4c(-c5ccc(OC)c(OC)c5)cc(-c5ccc(OC)c(OC)c5)c(C#N)c4=O)cc3)=NN2)cc1 (centres unmarked) [Compound 28]"
  targetEntity: "UniProt:P00533"
  pIC50: 7.15

Then there is this compound:
// query Requested field: pIC50. Item: COc1ccc(C2CC(c3ccc(NC(=O)Cn4c(-c5ccc(Cl)cc5)cc(-c5ccc(Cl)cc5)c(C#N)c4=O)cc3)=NN2)cc1OC (centres unmarked) [Compound 29]
// result 7.12

====

test system: breast cancer (MCF-7) cell line; assay: Antiproliferative MTT assay, MCF-7; format: cell-based; conditions: Homo sapiens, MCF7; MCF-7, MTT; read-out: Antiproliferative Activity IC50 ± SEM, MCF-7
Reported IC50 by item:
Dear colleague, please return just the value in nM, with no unit written.

Previously resolved entries follow.
- compound: "C#Cc1cccc(Nc2ncnc3cc(OCCOC)c(OCCOC)cc23)c1 [Erlotinib, reference compound]"
  targetEntity: "breast cancer (MCF-7) cell line"
  readout: "IC50"
  obsValue: 40
- compound: "COc1ccc(-c2cc(-c3ccc(OC)c(OC)c3)n(CC(=O)Nc3ccc(C4=NNC(c5ccc(OC)c(OC)c5)C4)cc3)c(=O)c2C#N)cc1OC (centres unmarked)"
  targetEntity: "breast cancer (MCF-7) cell line"
  readout: "IC50"
  obsValue: 28
- compound: "COc1ccc(C2CC(c3ccc(NC(=O)Cn4c(-c5ccc(Cl)cc5)cc(-c5ccc(Cl)cc5)c(C#N)c4=O)cc3)=NN2)cc1 (centres unmarked)"
  targetEntity: "breast cancer (MCF-7) cell line"
  readout: "IC50"
  obsValue: 45
- compound: "COc1ccc(-c2cc(-c3ccc(OC)c(OC)c3)c(C#N)c(=O)n2CC(=O)Nc2ccc(C3=NNC(c4ccc(OC)c(OC)c4)C3)cc2)cc1 (centres unmarked)"
  targetEntity: "breast cancer (MCF-7) cell line"
  readout: "IC50"
  obsValue: 31
- compound: "Cc1ccc(C2CC(c3ccc(NC(=O)Cn4c(-c5ccc(Cl)cc5)cc(-c5ccc(Cl)cc5)c(C#N)c4=O)cc3)=NN2)c(C)c1 (centres unmarked)"
  targetEntity: "breast cancer (MCF-7) cell line"
  readout: "IC50"
  obsValue: 40

// query Give breast cancer (MCF-7) cell line IC50 for N#Cc1c(-c2ccc(Cl)cc2)cc(-c2ccc(Cl)cc2)n(CC(=O)Nc2ccc(C3=NNC(c4ccccc4)C3)cc2)c1=O (centres unmarked)
// result 30

// query Field entry: COc1ccc(C2CC(c3ccc(NC(=O)Cn4c(-c5ccc(OC)c(OC)c5)cc(-c5ccc(OC)c(OC)c5)c(C#N)c4=O)cc3)=NN2)cc1 (centres unmarked)
// result 30

// query Now consider N#Cc1c(-c2ccc(Cl)cc2)cc(-c2ccc(Cl)cc2)n(CC(=O)Nc2ccc(C3=NNC(c4ccc(Cl)cc4Cl)C3)cc2)c1=O (centres unmarked) and answer again.
// result 42

// query Next entry: N#Cc1c(-c2ccc(Cl)cc2)cc(-c2ccc(Cl)cc2)n(CC(=O)Nc2ccc(C3=NNC(c4ccc(Cl)cc4)C3)cc2)c1=O (centres unmarked)
// result 34

// query Same thing, different compound: COc1ccc(C2CC(c3ccc(NC(=O)Cn4c(-c5ccc(Cl)cc5)cc(-c5ccc(Cl)cc5)c(C#N)c4=O)cc3)=NN2)cc1OC (centres unmarked)
// result 31

// query Entry to check: COc1ccc(-c2cc(-c3ccc(OC)c(OC)c3)n(CC(=O)Nc3ccc(C4=NNC(c5ccccc5)C4)cc3)c(=O)c2C#N)cc1OC (centres unmarked)
// result 35
